Biological target: MDR1 (Homo sapiens, UniProt P08183)
Construct: expressed in transfected cells
Sequence (P08183 whole entry): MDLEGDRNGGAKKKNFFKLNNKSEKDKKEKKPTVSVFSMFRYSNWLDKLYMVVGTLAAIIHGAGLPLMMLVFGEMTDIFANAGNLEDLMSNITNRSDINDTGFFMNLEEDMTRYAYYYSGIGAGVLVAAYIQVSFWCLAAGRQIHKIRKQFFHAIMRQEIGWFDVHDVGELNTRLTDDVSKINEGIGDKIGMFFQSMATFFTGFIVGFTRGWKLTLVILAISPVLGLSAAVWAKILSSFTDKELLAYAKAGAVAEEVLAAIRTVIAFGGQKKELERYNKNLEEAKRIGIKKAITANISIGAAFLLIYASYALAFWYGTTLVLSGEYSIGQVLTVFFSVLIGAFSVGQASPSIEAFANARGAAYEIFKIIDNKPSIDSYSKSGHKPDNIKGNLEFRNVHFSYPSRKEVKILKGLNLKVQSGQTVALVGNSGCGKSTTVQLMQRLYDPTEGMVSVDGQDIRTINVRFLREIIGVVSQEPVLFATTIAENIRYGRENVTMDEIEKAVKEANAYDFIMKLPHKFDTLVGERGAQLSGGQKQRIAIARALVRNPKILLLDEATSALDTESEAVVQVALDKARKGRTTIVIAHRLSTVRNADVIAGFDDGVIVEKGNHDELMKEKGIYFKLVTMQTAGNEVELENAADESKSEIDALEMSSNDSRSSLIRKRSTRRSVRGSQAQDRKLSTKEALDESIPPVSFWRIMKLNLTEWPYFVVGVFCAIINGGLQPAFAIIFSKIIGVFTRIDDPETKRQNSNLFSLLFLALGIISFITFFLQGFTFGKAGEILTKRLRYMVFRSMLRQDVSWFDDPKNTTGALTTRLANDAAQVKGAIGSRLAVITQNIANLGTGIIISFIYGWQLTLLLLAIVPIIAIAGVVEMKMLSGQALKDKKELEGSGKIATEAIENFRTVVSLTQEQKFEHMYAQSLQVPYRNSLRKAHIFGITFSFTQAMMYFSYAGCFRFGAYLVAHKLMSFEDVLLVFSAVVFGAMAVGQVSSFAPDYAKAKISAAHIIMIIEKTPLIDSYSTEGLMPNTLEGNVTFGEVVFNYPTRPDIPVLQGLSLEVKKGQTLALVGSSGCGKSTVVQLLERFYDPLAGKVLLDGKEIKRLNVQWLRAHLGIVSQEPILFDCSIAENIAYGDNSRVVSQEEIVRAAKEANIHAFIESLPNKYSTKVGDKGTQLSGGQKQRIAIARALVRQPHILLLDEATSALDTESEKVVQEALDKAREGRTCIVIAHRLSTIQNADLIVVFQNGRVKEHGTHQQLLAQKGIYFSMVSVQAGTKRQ
Experiment: MDR1 membrane permeability test
Type: in vitro ADME
Settings: pH 7.4, efflux ratio (ER), Papp B to A / A to B, human MDR1-expressing LLC-PK1 cells, read-out: MDR1 substrate screening 1 μM (MDRSUB1)/Ratio (NUMBER)
Procedure: MDR1 Membrane Permeability Test When MDR1 is expressed in excess in LLC-PK1 cell, which is a polar cell, MDR1 is localized in apical membrane (A), thus promoting transcellular transport from the basement membrane side (B) toward direction A. When a ratio to the transcellular transport in the opposite direction is taken and a ratio to a control cell in which a mock vector has been introduced is further taken, an efflux ratio of MDR1 to simple diffusion (corrected efflux ratio) is calculated. […]
measurementKind: efflux ratio at 1 hr, 1 μM

Below are worked cases with known answers.
compound="Cc1c(Cc2ccc(C(=O)NC3(C)CC3)cc2)cc2c(=O)n([C@H]3CCOC[C@@H]3O)cnc2c1C [Example 43]" endpointresult=12
compound="Cc1nn(C)cc1-c1ccc(Cc2cc3c(=O)n([C@H]4CCOC[C@@H]4O)cnc3c(Cl)c2C)cn1 [Example 12]" endpointresult=17
compound="Cc1c(Cc2ccc(C(=O)NC3(C#N)CC3)c(F)c2)cc2c(=O)n([C@H]3CCOC[C@@H]3O)cnc2c1C [Example 89]" endpointresult=16
compound="Cc1c(Cc2ccc(C(=O)NCCO)cc2)cc2c(=O)n([C@H]3CCOC[C@@H]3O)cnc2c1C [Example 50]" endpointresult=13
compound="Cc1c(Cc2ccc(C(=O)NC[C@@H]3CCCO3)c(F)c2)cc2c(=O)n([C@H]3CCOC[C@@H]3O)cnc2c1C [Example 80]" endpointresult=9.5

a: COCCn1cc(-c2ccc(Cc3cc4c(=O)n([C@H]5CCOC[C@@H]5O)cnc4c(C)c3C)cn2)cn1 [Example 73]
b: Cc1c(Cc2ccc(C(=O)NC3(C(F)F)CC3)cc2)cc2c(=O)n([C@H]3CCOC[C@@H]3O)cnc2c1C [Example 35]
Which of the two gives a bigger number for efflux ratio at 1 hr, 1 μM: a or b ? Give the label of your selection.
a

====

Target: human M1 receptor (hCHRM1) (Homo sapiens, UniProt P11229)
Construct: expressed in transfected cells
Sequence (P11229 1-460): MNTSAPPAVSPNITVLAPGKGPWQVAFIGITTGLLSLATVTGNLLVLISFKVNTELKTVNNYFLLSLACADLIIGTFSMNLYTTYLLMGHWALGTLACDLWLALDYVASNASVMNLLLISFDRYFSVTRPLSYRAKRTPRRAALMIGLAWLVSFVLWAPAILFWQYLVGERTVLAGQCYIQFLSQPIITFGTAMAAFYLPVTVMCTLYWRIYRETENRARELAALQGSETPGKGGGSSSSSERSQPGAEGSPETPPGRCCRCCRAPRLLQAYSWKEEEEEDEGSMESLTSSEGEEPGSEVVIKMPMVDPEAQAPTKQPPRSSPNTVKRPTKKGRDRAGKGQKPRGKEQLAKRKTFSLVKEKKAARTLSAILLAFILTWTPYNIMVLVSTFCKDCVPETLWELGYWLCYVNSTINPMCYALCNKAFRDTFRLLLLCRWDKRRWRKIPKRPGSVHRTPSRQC
Assay: Measurement of M1 receptor positive allosteric modulator (M1PAM) activity, calcium fluorescence in CHO-K1 cells
Assay type: cell-based
Details: 10 μM test compound; 100% = acetylcholine final concentration 1 μM, 0% = DMSO
measurementKind: activity (%) at 10 μM

molecule=Cc1c(Cc2ccc(C(=O)NCCN3CCCC3=O)c(F)c2)cc2c(=O)n([C@H]3CCOC[C@@H]3O)cnc2c1C displayunit=% endpointresult=107
molecule=COC1CN(C(=O)c2ccc(Cc3cc4c(=O)n([C@H]5CCOC[C@@H]5O)cnc4c(C)c3C)cc2)C1 displayunit=% endpointresult=108
molecule=Cc1c(Cc2ccc(-c3cn(C)nn3)cc2)cc2c(=O)n([C@H]3CCOC[C@@H]3O)cnc2c1C displayunit=% endpointresult=97
molecule=CCOCCNC(=O)c1ccc(Cc2cc3c(=O)n([C@H]4CCOC[C@@H]4O)cnc3c(C)c2C)cc1F displayunit=% endpointresult=107
molecule=Cc1c(Cc2ccc(-c3cn(C)nn3)nc2)cc2c(=O)n([C@H]3CCOC[C@@H]3O)cnc2c1C displayunit=% endpointresult=104
molecule=COCCn1cc(-c2ccc(Cc3cc4c(=O)n([C@H]5CCOC[C@@H]5O)cnc4c(C)c3C)cn2)cn1 displayunit=% endpointresult=109
molecule=Cc1c(Cc2ccc(-c3cn(C)nn3)nc2)cc2c(=O)n([C@H]3CCOC[C@@H]3O)nnc2c1C displayunit=% endpointresult=107

====

Target: human M1 receptor (hCHRM1) (Homo sapiens, UniProt P11229)
Construct: expressed in transfected cells
Experiment: Measurement of M1 receptor positive allosteric modulator (M1PAM) activity, calcium fluorescence in CHO-K1 cells
Assay type: cell-based
Conditions: 10 μM test compound; 100% = acetylcholine final concentration 1 μM, 0% = DMSO
measurementKind: activity (%) at 10 μM

molecule="Cc1c(Cc2ccc(-c3cnn(C)c3)cc2)cc2c(=O)n([C@H]3CCOC[C@@H]3O)cnc2c1F [Example 24]" measurementkind="activity (%) at 10 μM" endpointresult=108
molecule="Cc1c(Cc2ccc(-c3cnn(CC4CC4)c3)nc2)cc2c(=O)n([C@H]3CCOC[C@@H]3O)cnc2c1C [Example 71]" measurementkind="activity (%) at 10 μM" endpointresult=107
molecule="Cc1c(Cc2ccc(C(=O)NC3COC3)cc2)cc2c(=O)n([C@H]3CCOC[C@@H]3O)cnc2c1C [Example 27]" measurementkind="activity (%) at 10 μM" endpointresult=110
molecule="Cc1c(Cc2ccc(-c3cnn(C4CC4)c3)nc2)cc2c(=O)n([C@H]3CCOC[C@@H]3O)cnc2c1C [Example 56]" measurementkind="activity (%) at 10 μM" endpointresult=107
molecule="Cc1c(Cc2ccc(C(=O)NCC(C)(C)O)cc2)cc2c(=O)n([C@H]3CCOC[C@@H]3O)cnc2c1C [Example 39]" measurementkind="activity (%) at 10 μM" endpointresult=112
molecule="Cc1c(Cc2ccc(C(=O)NCC3(O)CC3)c(F)c2)cc2c(=O)n([C@H]3CCOC[C@@H]3O)cnc2c1C [Example 76]" measurementkind="activity (%) at 10 μM" endpointresult=106
molecule="Cc1c(Cc2ccc(C(=O)NC3(C)COC3)c(F)c2)cc2c(=O)n([C@H]3CCOC[C@@H]3O)cnc2c1C [Example 65]" measurementkind="activity (%) at 10 μM" endpointresult=109
molecule="Cc1c(Cc2ccc(-c3cnn(C4CCOCC4)c3)nc2)cc2c(=O)n([C@H]3CCOC[C@@H]3O)cnc2c1C [Example 75]" measurementkind="activity (%) at 10 μM" endpointresult=108
molecule="COCCCNC(=O)c1ccc(Cc2cc3c(=O)n([C@H]4CCOC[C@@H]4O)cnc3c(C)c2C)cc1F [Example 86]" measurementkind="activity (%) at 10 μM" endpointresult=110
molecule="Cc1c(Cc2ccc(C(=O)NC3CCOC3)cc2)cc2c(=O)n([C@H]3CCOC[C@@H]3O)cnc2c1C (some centres unmarked) [Example 33]" measurementkind="activity (%) at 10 μM" endpointresult=111
molecule="Cc1c(Cc2ccc(-c3ccn(C)n3)nc2)cc2c(=O)n([C@H]3CCOC[C@@H]3O)nnc2c1C [Example 59]" measurementkind="activity (%) at 10 μM" endpointresult=108
molecule="Cc1c(Cc2ccc(-c3ccn(C)n3)nc2)cc2c(=O)n([C@H]3CCOC[C@@H]3O)cnc2c1Cl [Example 13]" measurementkind="activity (%) at 10 μM" endpointresult=101
molecule="COc1cc2ncn([C@H]3CCOC[C@@H]3O)c(=O)c2cc1Cc1ccc(-c2cn(C)cn2)cc1 [Example 61]" measurementkind="activity (%) at 10 μM" endpointresult=108
molecule="Cc1c(Cc2ccc(-c3cnn(C)c3)cc2)cc2c(=O)n([C@H]3CCOC[C@@H]3O)cnc2c1C [Example 9]" measurementkind="activity (%) at 10 μM" endpointresult=109
molecule="Cc1c(Cc2ccc(C(=O)NCC3COC3)c(F)c2)cc2c(=O)n([C@H]3CCOC[C@@H]3O)cnc2c1C [Example 79]" measurementkind="activity (%) at 10 μM" endpointresult=108
molecule="Cc1c(Cc2ccc(C(=O)NCCO)cc2)cc2c(=O)n([C@H]3CCOC[C@@H]3O)cnc2c1C [Example 50]" measurementkind="activity (%) at 10 μM" endpointresult=103
molecule="Cc1c(Cc2ccc(-c3cnn(C)c3)nc2)cc2c(=O)n([C@H]3CCOC[C@@H]3O)nnc2c1Cl [Example 54]" measurementkind="activity (%) at 10 μM" endpointresult=106
molecule="CNC(=O)c1ccc(Cc2cc3c(=O)n([C@H]4CCOC[C@@H]4O)cnc3c(C)c2C)cc1F [Example 3]" measurementkind="activity (%) at 10 μM" endpointresult=103
molecule="CNC(=O)c1ccc(Cc2cc3c(=O)n([C@H]4CCOC[C@@H]4O)cnc3c(C)c2C)cc1 [Example 18]" measurementkind="activity (%) at 10 μM" endpointresult=106
molecule="COc1cc2ncn([C@H]3CCOC[C@@H]3O)c(=O)c2cc1Cc1ccc(-c2cnn(C)c2)nc1 [Example 58]" measurementkind="activity (%) at 10 μM" endpointresult=103
molecule="Cc1c(Cc2ccc(C(=O)NC[C@@H]3CCCO3)c(F)c2)cc2c(=O)n([C@H]3CCOC[C@@H]3O)cnc2c1C [Example 80]" measurementkind="activity (%) at 10 μM" endpointresult=107
molecule="COCCNC(=O)c1ccc(Cc2cc3c(=O)n([C@H]4CCOC[C@@H]4O)cnc3c(C)c2C)cc1F [Example 66]" measurementkind="activity (%) at 10 μM" endpointresult=106
molecule="Cc1c(Cc2ccc(-c3cnn(C)c3)nc2)cc2c(=O)n([C@H]3CCOC[C@@H]3O)cnc2c1C [Example 6]" measurementkind="activity (%) at 10 μM" endpointresult=99
molecule="Cc1c(Cc2ccc(C(=O)NC[C@H]3CCCO3)c(F)c2)cc2c(=O)n([C@H]3CCOC[C@@H]3O)cnc2c1C [Example 81]" measurementkind="activity (%) at 10 μM" endpointresult=110
molecule="Cc1c(Cc2ccc(C(=O)NCC(=O)N(C)C)c(F)c2)cc2c(=O)n([C@H]3CCOC[C@@H]3O)cnc2c1C [Example 68]" measurementkind="activity (%) at 10 μM" endpointresult=106
molecule="Cc1nn(C)cc1-c1ccc(Cc2cc3c(=O)n([C@H]4CCOC[C@@H]4O)cnc3c(C)c2C)cn1 [Example 5]" measurementkind="activity (%) at 10 μM" endpointresult=97
molecule="CNC(=O)c1ccc(Cc2cc3c(=O)n([C@H]4CCOC[C@@H]4O)nnc3c(Cl)c2C)cc1F [Example 19]" measurementkind="activity (%) at 10 μM" endpointresult=103
molecule="COCCNC(=O)c1ccc(Cc2cc3c(=O)n([C@H]4CCOC[C@@H]4O)cnc3c(C)c2C)cc1 [Example 49]" measurementkind="activity (%) at 10 μM" endpointresult=101
molecule="Cc1c(Cc2ccc(-c3cnn(C)c3)nc2)cc2c(=O)n([C@H]3CCOC[C@@H]3O)cnc2c1Cl [Example 11]" measurementkind="activity (%) at 10 μM" endpointresult=100
